The measurements presented in this section are drawn from patent US11541049B2.

Experiment: Pharmacokinetics study in male SD rats, intravenous injection
Format: in vivo
Conditions: male, SD, rat, plasma, rats, 1 mg/kg
quantity.measured: AUC(0-t) (ng·h/mL)
Dear colleague, please return just the value in ng·h/mL, with no unit written.

Requested field: AUC(0-t). Item: N[C@@H](CCCCNC(=O)CN1CC=C(c2cccc3c2CCN(C(=O)[C@H]2CC(c4cccc(Cl)c4F)=NO2)[C@@H]3C(=O)Nc2ccc(C(=O)O)cc2)CC1)C(=O)O
2890

====

Experiment: Pharmacokinetics study in male SD rats, intravenous injection
Assay type: in vivo
Details: male, SD, rat, plasma, rats, 5 mg/kg
quantity.measured: AUC(0-inf) (ng·h/mL)
Dear colleague, please return just the value in ng·h/mL, with no unit written.

Requested field: AUC(0-inf). Item: CN1CCN(c2cccc3c2CCN(C(=O)/C=C/c2c(-n4cnnn4)ccc(Cl)c2F)[C@@H]3C(=O)Nc2ccc(C(=O)O)cc2)C(=O)C1 [BMS-962212, reference compound]
4090

====

Assay: Pharmacokinetics study in male SD rats, intravenous injection
Type: in vivo
Conditions: male, SD, rat, plasma, rats, 5 mg/kg
quantity.measured: clearance (mL/min/kg)
Dear colleague, please return just the value in mL/min/kg, with no unit written.

Requested field: clearance. Item: CN1CCN(c2cccc3c2CCN(C(=O)/C=C/c2c(-n4cnnn4)ccc(Cl)c2F)[C@@H]3C(=O)Nc2ccc(C(=O)O)cc2)C(=O)C1 [BMS-962212, reference compound]
20.7

====

Experiment: in vivo
Details: SD, rat, iv
quantity.measured: MTD at 7 days

Requested field: MTD at 7 days. Item: N[C@@H](CCCCNC(=O)CN1CC=C(c2cccc3c2CCN(C(=O)[C@H]2CC(c4cccc(Cl)c4F)=NO2)[C@@H]3C(=O)Nc2ccc(C(=O)O)cc2)CC1)C(=O)O
≥ 200 mg/kg

====

Experiment: Single dose toxicity study in SD rats, intravenous infusion
Conditions: SD, rat, in vivo, iv
quantity.measured: MTD at 7 days (mg/kg)
Dear colleague, please return just the value in mg/kg, with no unit written.

Requested field: MTD at 7 days. Item: CN1CCN(c2cccc3c2CCN(C(=O)/C=C/c2c(-n4cnnn4)ccc(Cl)c2F)[C@@H]3C(=O)Nc2ccc(C(=O)O)cc2)C(=O)C1 [BMS-962212, reference compound]
70

====

Answer each item with its documented AUC(0-inf).
Experiment: Pharmacokinetics study in Beagle dogs, intravenous injection
Format: in vivo, Beagle dog
Settings: dog, plasma, 0.5 mg/kg
Dear colleague, please return just the value in ng·h/mL, with no unit written.

Requested field: AUC(0-inf). Item: N[C@@H](CCCCNC(=O)CN1CC=C(c2cccc3c2CCN(C(=O)[C@H]2CC(c4cccc(Cl)c4F)=NO2)[C@@H]3C(=O)Nc2ccc(C(=O)O)cc2)CC1)C(=O)O
18100

Requested field: AUC(0-inf). Item: CN1CCN(c2cccc3c2CCN(C(=O)/C=C/c2c(-n4cnnn4)ccc(Cl)c2F)[C@@H]3C(=O)Nc2ccc(C(=O)O)cc2)C(=O)C1 [BMS-962212, reference compound]
846

====

Test: Solubility test in pH 7.4 buffer
Assay type: physicochemical
Conditions: buffer (pH 7.4), aqueous buffer, thermodynamic from solid, 25° C.
Procedure: The test compound was dissolved in a buffer (pH 7.4) at room temperature until the solution reached supersaturation. The solution was shaken at 25° C. by a constant temperature mixer for 4 hours, filtered through a 0.45 μm aqueous membrane filter, and the concentration was measured by UPLC. […] The reference substance was measured using the same process. The solubility of the test compound was calculated according to external standard process, and the results are shown in table 4.
quantity.measured: solubility at 4 h (mg/mL)
Dear colleague, please return just the value in mg/mL, with no unit written.

Requested field: solubility at 4 h. Item: N[C@@H](CCCCNC(=O)CN1CC=C(c2cccc3c2CCN(C(=O)[C@H]2CC(c4cccc(Cl)c4F)=NO2)[C@@H]3C(=O)Nc2ccc(C(=O)O)cc2)CC1)C(=O)O
10.8

====

Assay: Pharmacokinetics study in male SD rats, intravenous injection
Assay type: in vivo
Details: male, SD, rat, plasma, rats, 5 mg/kg
quantity.measured: AUC(0-t) (ng·h/mL)
Dear colleague, please return just the value in ng·h/mL, with no unit written.

Requested field: AUC(0-t). Item: CN1CCN(c2cccc3c2CCN(C(=O)/C=C/c2c(-n4cnnn4)ccc(Cl)c2F)[C@@H]3C(=O)Nc2ccc(C(=O)O)cc2)C(=O)C1 [BMS-962212, reference compound]
4090

====

Assay: Pharmacokinetics study in male SD rats, intravenous injection
Assay type: in vivo
Conditions: male, SD, rat, plasma, rats, 5 mg/kg
quantity.measured: Cmax (ng/mL)
Dear colleague, please return just the value in ng/mL, with no unit written.

Requested field: Cmax. Item: CN1CCN(c2cccc3c2CCN(C(=O)/C=C/c2c(-n4cnnn4)ccc(Cl)c2F)[C@@H]3C(=O)Nc2ccc(C(=O)O)cc2)C(=O)C1 [BMS-962212, reference compound]
11100

====

Target: human coagulation factor Xa (Homo sapiens (Human))
Sequence (P00742 whole entry, looked up): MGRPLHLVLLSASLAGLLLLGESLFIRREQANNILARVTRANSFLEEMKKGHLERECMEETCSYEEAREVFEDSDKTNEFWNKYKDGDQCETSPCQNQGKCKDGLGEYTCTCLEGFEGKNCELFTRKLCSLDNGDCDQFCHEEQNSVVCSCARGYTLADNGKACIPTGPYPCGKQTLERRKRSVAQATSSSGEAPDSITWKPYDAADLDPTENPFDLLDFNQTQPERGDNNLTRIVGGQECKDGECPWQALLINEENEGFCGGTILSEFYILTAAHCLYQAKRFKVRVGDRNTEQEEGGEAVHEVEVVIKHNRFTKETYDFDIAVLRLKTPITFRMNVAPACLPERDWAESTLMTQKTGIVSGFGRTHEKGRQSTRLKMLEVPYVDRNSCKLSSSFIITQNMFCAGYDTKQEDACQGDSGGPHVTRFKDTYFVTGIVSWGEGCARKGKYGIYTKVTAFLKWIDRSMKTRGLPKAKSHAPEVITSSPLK
Sequence (P00742 whole entry, looked up): as above
quantity.measured: IC50

Requested field: IC50. Item: N[C@@H](CCCCNC(=O)CN1CC=C(c2cccc3c2CCN(C(=O)[C@H]2CC(c4cccc(Cl)c4F)=NO2)[C@@H]3C(=O)Nc2ccc(C(=O)O)cc2)CC1)C(=O)O [Example 5]
~10 µM

====

Assay: Pharmacokinetics study in Beagle dogs, intravenous injection
Assay type: in vivo, Beagle dog
Details: dog, plasma, 0.5 mg/kg
Answer each item with its documented Cmax.
Dear colleague, please return just the value in ng/mL, with no unit written.

Requested field: Cmax. Item: N[C@@H](CCCCNC(=O)CN1CC=C(c2cccc3c2CCN(C(=O)[C@H]2CC(c4cccc(Cl)c4F)=NO2)[C@@H]3C(=O)Nc2ccc(C(=O)O)cc2)CC1)C(=O)O [Example 5]
3950

Requested field: Cmax. Item: CN1CCN(c2cccc3c2CCN(C(=O)/C=C/c2c(-n4cnnn4)ccc(Cl)c2F)[C@@H]3C(=O)Nc2ccc(C(=O)O)cc2)C(=O)C1 [BMS-962212, reference compound]
1480

====

Answer each item with its documented clearance.
Test: Pharmacokinetics study in Beagle dogs, intravenous injection
Type: in vivo, Beagle dog
Settings: dog, plasma, 0.5 mg/kg
Dear colleague, please return just the value in mL/min/kg, with no unit written.

Requested field: clearance. Item: CN1CCN(c2cccc3c2CCN(C(=O)/C=C/c2c(-n4cnnn4)ccc(Cl)c2F)[C@@H]3C(=O)Nc2ccc(C(=O)O)cc2)C(=O)C1 [BMS-962212, reference compound]
9.91

Requested field: clearance. Item: N[C@@H](CCCCNC(=O)CN1CC=C(c2cccc3c2CCN(C(=O)[C@H]2CC(c4cccc(Cl)c4F)=NO2)[C@@H]3C(=O)Nc2ccc(C(=O)O)cc2)CC1)C(=O)O
0.46

====

Experiment: Repeated dose toxicity study in SD rats, intravenous infusion, daily for 14 days
Type: in vivo
Settings: rat, in vivo, daily for 14 days, SD rats, read-out: No-observed-adverse-effect level (NOAEL)
quantity.measured: NOAEL at 14 days

Requested field: NOAEL at 14 days. Item: N[C@@H](CCCCNC(=O)CN1CC=C(c2cccc3c2CCN(C(=O)[C@H]2CC(c4cccc(Cl)c4F)=NO2)[C@@H]3C(=O)Nc2ccc(C(=O)O)cc2)CC1)C(=O)O
60 mg/kg

Requested field: NOAEL at 14 days. Item: CN1CCN(c2cccc3c2CCN(C(=O)/C=C/c2c(-n4cnnn4)ccc(Cl)c2F)[C@@H]3C(=O)Nc2ccc(C(=O)O)cc2)C(=O)C1 [BMS-962212, reference compound]
< 60 mg/kg

====

Assay: Pharmacokinetics study in Beagle dogs, intravenous injection
Format: in vivo, Beagle dog
Conditions: dog, plasma, 0.5 mg/kg
quantity.measured: half-life (h)
Dear colleague, please return just the value in h, with no unit written.

Requested field: half-life. Item: N[C@@H](CCCCNC(=O)CN1CC=C(c2cccc3c2CCN(C(=O)[C@H]2CC(c4cccc(Cl)c4F)=NO2)[C@@H]3C(=O)Nc2ccc(C(=O)O)cc2)CC1)C(=O)O [Example 5]
6.02

Requested field: half-life. Item: CN1CCN(c2cccc3c2CCN(C(=O)/C=C/c2c(-n4cnnn4)ccc(Cl)c2F)[C@@H]3C(=O)Nc2ccc(C(=O)O)cc2)C(=O)C1 [BMS-962212, reference compound]
0.83

====

Test: Pharmacokinetics study in male rabbits, intravenous injection
Format: in vivo
Conditions: male, rabbit, plasma, 1 mg/kg
Answer each item with its documented clearance.
Dear colleague, please return just the value in mL/min/kg, with no unit written.

Requested field: clearance. Item: N[C@@H](CCCCNC(=O)CN1CC=C(c2cccc3c2CCN(C(=O)[C@H]2CC(c4cccc(Cl)c4F)=NO2)[C@@H]3C(=O)Nc2ccc(C(=O)O)cc2)CC1)C(=O)O [Example 5]
3.18

Requested field: clearance. Item: CN1CCN(c2cccc3c2CCN(C(=O)/C=C/c2c(-n4cnnn4)ccc(Cl)c2F)[C@@H]3C(=O)Nc2ccc(C(=O)O)cc2)C(=O)C1 [BMS-962212, reference compound]
34.6
